B1: HDV Ribozyme (parent)
chain: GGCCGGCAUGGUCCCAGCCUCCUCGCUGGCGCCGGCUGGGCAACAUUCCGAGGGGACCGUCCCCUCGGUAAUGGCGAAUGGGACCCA

Variants of: B1
ASSAY: self-cleavage, relative activity (ratio to wild type); higher = more cleavage; co-transcriptional
ASSAY_READOUT: self-cleavage
Answers are plain numbers.

# VARIANT_CODE, VAL
rows = [
    ("C32A G52C", 0.0831),
    ("G28U G82A", 0.191),
    ("A8C C22A", 0.249),
    ("G6C U79A", 0.119),
]

I'm hoping you can list self-cleavage for every variant here, please.
1. G2C U46C
2. A8U G80C
3. G55C C75A
4. U9A A71C
5. A51C A77G
6. C66G A83G

[0.0475, 0.128, 0.148, 1.05, 0.643, 0.72]

I'm hoping you can list self-cleavage for every variant here, please.
1. U9C G55U
2. C58G C85G
3. A8U C33U

1. 1.2
2. 0.95
3. 0.453
